Target: MDM2 (Homo sapiens, UniProt Q00987)
Sequence (Q00987 whole entry): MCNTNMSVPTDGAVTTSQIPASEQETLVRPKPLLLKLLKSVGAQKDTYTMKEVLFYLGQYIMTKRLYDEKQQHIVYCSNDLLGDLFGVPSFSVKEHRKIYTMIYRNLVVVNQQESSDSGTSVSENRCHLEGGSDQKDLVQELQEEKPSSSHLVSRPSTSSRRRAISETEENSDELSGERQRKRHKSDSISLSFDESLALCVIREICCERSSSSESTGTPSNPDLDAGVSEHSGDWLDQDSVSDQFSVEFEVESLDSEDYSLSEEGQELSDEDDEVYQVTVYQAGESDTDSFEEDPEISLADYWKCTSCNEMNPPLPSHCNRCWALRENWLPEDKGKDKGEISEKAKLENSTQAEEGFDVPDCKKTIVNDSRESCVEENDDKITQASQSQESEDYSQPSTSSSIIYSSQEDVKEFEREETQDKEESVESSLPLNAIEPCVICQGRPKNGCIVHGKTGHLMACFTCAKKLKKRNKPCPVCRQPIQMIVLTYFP
Assay: MDM2 binding screen: displacement of fluorescent p53 peptide probe FP53 (fluorescence polarization)
Details: Acid 25; initial screen; crude macrocycle reactions
Numbered stars: 1 amine (or outer) side, 2 acyl side, 3 side chain; on linkers, the order of the positions; unused ones are H or OH. Bridge positions count the residues as written; N and C are the ends. Square brackets hold non-standard residues; d marks the D form. Peptide text beside a SMILES is read from it. * marks the point of attachment. Benzoyl(4-Cl) = O=C(c1ccc(Cl)cc1)*; Cysteamide = C(CS[*:3])N[*:1]; Api = NC1(C(=O)O)CCNCC1; Mpa = O=C(O)CCS
Recorded fraction fluorescent probe displaced, Screen for the following compounds
Note: the reply should be a number with no unit written.

Previously resolved entries follow.
| compound | experimental-value |
| --- | --- |
| O=C1CCSSCCNC(=O)C2(CCN(C(=O)c3ccc(Cl)cc3)CC2)NC(=O)[C@H]2CCCN(C2)C(=O)[C@H](Cc2c[nH]c3ccccc23)N1 | 0.25 |
| O=C1CCNC(=O)[C@H](Cc2ccccc2)NC(=O)[C@H](CNC(=O)c2ccc(Cl)cc2)NC(=O)CCSSCCN1 | -0.00813 |
| O=C1CCSSCCNC(=O)[C@H](Cc2c[nH]c3ccccc23)NC(=O)CCNC(=O)[C@H](CNC(=O)c2ccc(Cl)cc2)N1 | 0.12 |
| O=C1CCSSCCNC(=O)[C@@H]2CCCN2C(=O)[C@H](Cc2ccccc2)NC(=O)C2(CCN(C(=O)c3ccc(Cl)cc3)CC2)N1 [X D6 F B1 Acid 25] ([Mpa][Api](Benzoyl(4-Cl))FP-Cysteamide; disulfide 1-C) | 0.15 |
| O=C1NC(Cc2ccccc2)C(=O)NCCSSCCC(=O)N2CCN(C(=O)c3ccc(Cl)cc3)CC2C(=O)NCc2cccc1c2 (stereo not drawn) | -0.04 |

Turning to the following compound.
**Query** Fill in fraction fluorescent probe displaced, Screen for record `O=C1CCSSCCNC(=O)C2(CCN(C(=O)c3ccc(Cl)cc3)CC2)NC(=O)c2cccc(c2)CNC(=O)[C@H](Cc2ccccc2)N1`
**Result** 0.0569
